# selectivity ratio per record follows
Experiment: Selectivity index, ratio of CC50 for human MT4 cells to EC50 for HIV-1 NL4-3 infected in MT4 cells
Type: toxicity, cell-based
Settings: read-out: Ratio CC50/EC50

Data request: Specify selectivity ratio for "C=C(C)[C@]12C[C@@H](COC(C)=O)[C@@]34OC5(O[C@@H]1[C@@H]3[C@@H]1O[C@]1(CO)[C@@H](O)[C@@]1(O)[C@H]4[C@H]([C@H](C)[C@@H]1OC(=O)c1ccccc1)[C@H](C)C[C@@H](OC(=O)c1ccccc1)CCCC[C@H]5O)O2" and stop.
Data returned: ≥ 12900

Next:
Data request: Specify selectivity ratio for "C=C(C)[C@]1(O)C[C@@H](C)[C@@]2(O)[C@H]([C@H]1OC(=O)/C=C/C=C/CCCCCCCCC)[C@@H]1O[C@]1(CO)[C@@H](O)[C@]1(O)C(=O)C(C)=C[C@H]12" and stop.
Data returned: ≥ 281

====

# CC50 per record follows
System: MT4
Assay: Cytotoxicity against human MT4 cells by cellTiterGlo assay
Assay type: cell-based

Data request: Give the observed CC50 of "C=C(C)[C@]12C[C@@H](C)[C@@]34O[C@](CCCCCCCCC)(O[C@@H]1[C@@H]3[C@@H]1O[C@]1(CO)[C@@H](O)[C@]1(O)C(=O)C(C)=C[C@H]14)O2" for MT4.
Data returned: ≥ 18.8 µM

Data request: Give the observed CC50 of "C=C(C)[C@]12C[C@@H](COC(=O)c3ccccc3)[C@@]34OC5(O[C@@H]1[C@@H]3[C@@H]1O[C@]1(COC(=O)c1ccccc1)[C@@H](O)[C@@]1(O)[C@H]4[C@H]([C@H](C)[C@@H]1O)[C@H](C)CCCCCC[C@H]5O)O2" for MT4.
Data returned: ≥ 12.9 µM

Next:
Data request: Give the observed CC50 of "C=C(C)[C@]12C[C@@H](COC(=O)c3ccccc3)[C@]34OC5(CCCCCCC[C@H](C)[C@@H]6[C@@H]3[C@]3(O[C@]6(C)OC3=O)[C@H](O)[C@@]3(COC(=O)CCCCCCC/C=C\C/C=C\CCCCC)O[C@H]3[C@H]4[C@H]1O5)O2" for MT4.
Data returned: ≥ 10.8 µM

Data request: Give the observed CC50 of "C=C(C)[C@]12C[C@@H](COC(=O)c3ccccc3)[C@@]34OC5(O[C@@H]1[C@@H]3[C@@H]1O[C@]1(CO)[C@@H](O)[C@@]1(O)[C@H]4[C@H]([C@H](C)[C@@H]1OC(=O)c1ccccc1)[C@H](C)C[C@@H](OC(=O)c1ccccc1)CCCC[C@H]5O)O2" for MT4.
Data returned: ≥ 11.2 µM

Data request: Give the observed CC50 of "C=C(C)[C@]12C[C@@H](COC(=O)c3ccccc3)[C@]34OC5(CCCCCCC[C@H](C)[C@@H]6[C@@H]3[C@]3(O[C@]6(C)OC3=O)[C@H](O)[C@@]3(CO)O[C@H]3[C@H]4[C@H]1O5)O2" for MT4.
Data returned: ≥ 13.8 µM

Data request: Give the observed CC50 of "C=C(C)[C@]12C[C@@H](COC(=O)c3ccccc3)[C@]34OC5(CCCCCCC[C@H](C)[C@@H]6[C@@H]3[C@]3(O[C@]6(C)OC3=O)[C@H](O)[C@@]3(COC(=O)CCCCCCCCCCCCCCC)O[C@H]3[C@H]4[C@H]1O5)O2" for MT4.
Data returned: ≥ 11.1 µM

Data request: Give the observed CC50 of "C=C(C)[C@]12C[C@@H](C)[C@@]34OC(/C=C/C=C/CCCCCCCCCC)(O[C@@H]1[C@@H]3[C@@H]1O[C@]1(CO)[C@@H](O)[C@]1(O)C(=O)C(C)=C[C@H]14)O2" for MT4.
Data returned: ≥ 16.7 µM

Data request: Give the observed CC50 of "C=C(C)[C@@]12OC3(/C=C/C=C/CCCCCCCCCC)O[C@@H]1[C@@H]1[C@@H]4O[C@]4(CO)[C@@H](O)[C@]4(O)C(=O)C(C)=C[C@H]4[C@@]1(O3)[C@H](C)[C@H]2OC(C)=O" for MT4.
Data returned: ≥ 15.3 µM

====

Assay: Selectivity index, ratio of CC50 for human MT4 cells to EC50 for HIV-1 NL4-3 infected in MT4 cells
Assay type: toxicity, cell-based
Conditions: read-out: Ratio CC50/EC50
test-readout: selectivity ratio

Data request: Specify selectivity ratio for "C=C(C)[C@@]1(O)[C@H](OC(=O)/C=C/C=C/CCCCCCCCC)[C@@H]2[C@@H]3O[C@]3(CO)[C@@H](O)[C@]3(O)C(=O)C(C)=C[C@H]3[C@@]2(O)[C@H](C)[C@H]1OC(C)=O" and stop.
Data returned: ≥ 345

Next:
Data request: Specify selectivity ratio for "C=C(C)[C@]12C[C@@H](COC(=O)c3ccccc3)[C@@]34OC5(O[C@@H]1[C@@H]3[C@@H]1O[C@]1(COC(=O)c1ccccc1)[C@@H](O)[C@@]1(O)[C@H]4[C@H]([C@H](C)[C@@H]1O)[C@H](C)CCCCCC[C@H]5O)O2" and stop.
Data returned: ≥ 13200

Data request: Specify selectivity ratio for "C=C(C)[C@@]12OC3(/C=C/C=C/CCCCCCCCCC)O[C@@H]1[C@@H]1[C@@H]4O[C@]4(CO)[C@@H](O)[C@]4(O)C(=O)C(C)=C[C@H]4[C@@]1(O3)[C@H](C)[C@H]2O" and stop.
Data returned: ≥ 135

Data request: Specify selectivity ratio for "C=C(C)[C@]12C[C@@H](C)[C@]34O[C@]5(CCCCCCC[C@H](C)[C@@H]6[C@@H]3[C@]3(O[C@]6(C)OC3=O)[C@H](O)[C@@]3(CO)O[C@H]3[C@H]4[C@H]1O5)O2" and stop.
Data returned: ≥ 16

Data request: Specify selectivity ratio for "C=C(C)[C@]12C[C@@H](C)[C@@]34O[C@](CCCCCCCCC)(O[C@@H]1[C@@H]3[C@@H]1O[C@]1(CO)[C@@H](O)[C@]1(O)C(=O)C(C)=C[C@H]14)O2" and stop.
Data returned: ≥ 400

Data request: Specify selectivity ratio for "C=C(C)[C@]12C[C@@H](COC(=O)c3ccccc3)[C@@]34OC5(CCCCCCC[C@@H](C)[C@H]6[C@H](C)C(=O)[C@@](O)([C@H](O)[C@@]7(CO)O[C@H]7[C@H]3[C@H]1O5)[C@@H]64)O2" and stop.
Data returned: ≥ 318

====

# EC50 per record follows
Test system: Human immunodeficiency virus 1
Assay: Antiviral activity against HIV-1 NL4-3 infected in MT4 cells assessed as viral replication measured on day 4 post infection by ELISA
Type: functional, organism-based
Conditions: Human immunodeficiency virus 1, NL4-3, MT4, 96 h
// note: answer is a bare numeric in nM

Record excerpt, results attached:
Data request: Specify EC50 for "C=C(C)[C@]12C[C@@H](C)[C@@]34O[C@](/C=C/C=C/CCCCCCCCC)(O[C@@H]1[C@@H]3[C@@H]1O[C@]1(CO)[C@@H](O)[C@]1(O)C(=O)C(C)=C[C@H]14)O2" and stop.
Data returned: 2.6

Data request: Specify EC50 for "C=C(C)[C@]12C[C@@H](C)[C@]34O[C@]5(CCCCCCC[C@H](C)[C@@H]6[C@@H]3[C@]3(O[C@]6(C)OC3=O)[C@H](O)[C@@]3(CO)O[C@H]3[C@H]4[C@H]1O5)O2" and stop.
Data returned: 1120

# input for lookup
Data request: Specify EC50 for "C=C(C)[C@]12C[C@@H](COC(=O)c3ccccc3)[C@@]34OC5(O[C@@H]1[C@@H]3[C@@H]1O[C@]1(CO)[C@@H](O)[C@@]1(O)[C@H]4[C@H]([C@H](C)[C@@H]1OC(=O)c1ccccc1)[C@H](C)C[C@@H](OC(=O)c1ccccc1)CCCC[C@H]5O)O2" and stop.
Data returned: 0.73

====

Test system: Human immunodeficiency virus 1
Assay: Antiviral activity against HIV-1 NL4-3 infected in MT4 cells assessed as viral replication measured on day 4 post infection by ELISA
Format: functional, organism-based
Settings: Human immunodeficiency virus 1, NL4-3, MT4, 96 h
# pEC50 per record follows
Note on units: pEC50 is unitless, being -log10 of a concentration expressed in mol/L.

Data request: Specify pEC50 for "C=C(C)[C@@]12OC3(/C=C/C=C/CCCCCCCCCC)O[C@@H]1[C@@H]1[C@@H]4O[C@]4(CO)[C@@H](O)[C@]4(O)C(=O)C(C)=C[C@H]4[C@@]1(O3)[C@H](C)[C@H]2O" and stop.
Data returned: 6.92

Next:
Data request: Specify pEC50 for "C=C(C)[C@@]12OC3(/C=C/C=C/CCCCCCCCCC)O[C@@H]1[C@@H]1[C@@H]4O[C@]4(CO)[C@@H](O)[C@]4(O)C(=O)C(C)=C[C@H]4[C@@]1(O3)[C@H](C)[C@H]2OC(C)=O" and stop.
Data returned: 7.41

Data request: Specify pEC50 for "C=C(C)[C@]12C[C@@H](COC(=O)c3ccccc3)[C@@]34OC5(CCCCCCC[C@@H](C)[C@H]6[C@H](C)C(=O)[C@@](O)([C@H](O)[C@@]7(CO)O[C@H]7[C@H]3[C@H]1O5)[C@@H]64)O2" and stop.
Data returned: 7.32

Data request: Specify pEC50 for "C=C(C)[C@@]1(O)[C@H](OC(=O)/C=C/C=C/CCCCCCCCC)[C@@H]2[C@@H]3O[C@]3(CO)[C@@H](O)[C@]3(O)C(=O)C(C)=C[C@H]3[C@@]2(O)[C@H](C)[C@H]1OC(C)=O" and stop.
Data returned: 7.36

Data request: Specify pEC50 for "C=C(C)[C@]12C[C@@H](COC(=O)c3ccccc3)[C@@]34OC5(O[C@@H]1[C@@H]3[C@@H]1O[C@]1(COC(=O)c1ccccc1)[C@@H](O)[C@@]1(O)[C@H]4[C@H]([C@H](C)[C@@H]1O)[C@H](C)CCCCCC[C@H]5O)O2" and stop.
Data returned: 9.01
